- experimentNotes: In vivo pharmacokinetic study of ponatinib in rats (plasma by HPLC-FLD, non-compartmental analysis)
- Design: species or system Male SD rats
- conditionInfo: male, rat, PO 7.5 mg/kg, mean ± SD, n = 3

[
  {
    "inputSmiles": "Cc1ccc(C(=O)Nc2ccc(CN3CCN(C)CC3)c(C(F)(F)F)c2)cc1C#Cc1cnc2cccnn12",
    "unit": "ng/mL",
    "Cmax": 308
  }
]

====

- experimentNotes: In vivo pharmacokinetic study of ponatinib in rats (plasma by HPLC-FLD, non-compartmental analysis)
- Set-up: species or system Male SD rats
- conditionInfo: male, rat, IV 4 mg/kg, mean ± SD, n = 3, read-out: T1/2 (terminal half-life) (converted)
- Description: Animal experiments were conducted following the guidelines of the Korea Research Institute of Bioscience and Biotechnology (KRIBB-AEC-20309). […] Plasma ponatinib concentrations were determined using the HPLC-FLD method developed in this study. Pharmacokinetic parameters were calculated using non-compartmental analysis via WinNonlin software (Pharsight Corporation, Mountain View, CA, USA). […]
assayEndpoint: half-life (h)

[
  {
    "compound": "Cc1ccc(C(=O)Nc2ccc(CN3CCN(C)CC3)c(C(F)(F)F)c2)cc1C#Cc1cnc2cccnn12 [ponatinib, Ponatinib]",
    "assayEndpoint": "half-life",
    "recordedValue": 6.84
  }
]

====

- experimentNotes: In vivo pharmacokinetic study of ponatinib in rats (plasma by HPLC-FLD, non-compartmental analysis)
- Set-up: species or system Male SD rats
- conditionInfo: male, rat, PO 7.5 mg/kg, mean ± SD, n = 3

[
  {
    "compound": "Cc1ccc(C(=O)Nc2ccc(CN3CCN(C)CC3)c(C(F)(F)F)c2)cc1C#Cc1cnc2cccnn12 [ponatinib, Ponatinib]",
    "AUC(0-t)": "5400 ng·h/mL"
  }
]

====

- experimentNotes: In vivo pharmacokinetic study of ponatinib in rats (plasma by HPLC-FLD, non-compartmental analysis)
- Design: species or system Male SD rats
- conditionInfo: male, rat, PO 7.5 mg/kg, mean ± SD, n = 3, read-out: T1/2 (terminal half-life) (converted)

[
  {
    "inputSmiles": "Cc1ccc(C(=O)Nc2ccc(CN3CCN(C)CC3)c(C(F)(F)F)c2)cc1C#Cc1cnc2cccnn12",
    "unit": "h",
    "half-life": 8.75
  }
]

====

- experimentNotes: In vivo pharmacokinetic study of ponatinib in rats (plasma by HPLC-FLD, non-compartmental analysis)
- Set-up: species or system Male SD rats
- conditionInfo: male, rat, PO 7.5 mg/kg, mean ± SD, n = 3

[
  {
    "inputSmiles": "Cc1ccc(C(=O)Nc2ccc(CN3CCN(C)CC3)c(C(F)(F)F)c2)cc1C#Cc1cnc2cccnn12",
    "unit": "h",
    "Tmax": 5.34
  }
]

====

- experimentNotes: In vivo pharmacokinetic study of ponatinib in rats (plasma by HPLC-FLD, non-compartmental analysis)
- Design: species or system Male SD rats
- conditionInfo: male, rat, IV 4 mg/kg, mean ± SD, n = 3

[
  {
    "inputSmiles": "Cc1ccc(C(=O)Nc2ccc(CN3CCN(C)CC3)c(C(F)(F)F)c2)cc1C#Cc1cnc2cccnn12",
    "AUC(0-t), ng·h/mL": 6100
  }
]

The measurements presented in this section are drawn from paper PMC11471595.
